# assay-comment: qHTS assay for cell viability of the p53RE-bla HCT-116 cell line (AID 743292); further: nearly all actives have a fitted effect of over 55% in size
# assay-setup: p53RE-bla HCT-116 viability, ATP luminescence, 16 h; series mostly up to 95 µM
Records with an inconclusive call do not appear. The source made the active and inactive calls. The call rests on the fitted dose curve; in most records, active means well fitted cell-killing curve with a large enough effect; inconclusive means small, poorly fitted or top-dose-only effect, or effect the other way; inactive means flat fitted curve, though single readings scatter.
Write down the outcome that applies. Available outcomes: active, inactive

The examples below pair each entry with its known result.
{"compound": "COC(C)(C)CCC[C@H](C)C/C=C/C(C)=C/C(=O)OC(C)C", "group": "inactive"}
{"compound": "Oc1c(Br)c(Br)c(Br)c(Br)c1Br", "group": "inactive"}

## Input Hi, sorry to bother you, what did the test record for CC(C)C1(C)N=C(c2nc3ccccc3cc2C(=O)O)NC1=O (configuration not stated) ?
## Output inactive

## Input Entry CCOC(=O)C(Cl)Cc1cc(-n2nc(C)n(C(F)F)c2=O)c(F)cc1Cl (configuration not stated) : call = ?
## Output inactive

## Input Per the records of this test, what outcome belongs to COc1ccc(/C(=C/C(=O)N2CCOCC2)c2ccc(Cl)cc2)cc1OC ?
## Output inactive

## Input Field: outcome | Entry: Nc1ccccc1C(=O)OCCc1ccccc1
## Output inactive

## Input Hey, what did the test say about CCCSC(=O)N(CCC)CCC ?
## Output inactive

## Input Recorded call for CCOP(N)(=O)Oc1ccc(SC)c(C)c1 (configuration not stated) ?
## Output inactive

## Input Outcome logged for CCOP(=S)(OCC)Oc1ccc(S(C)=O)cc1 (configuration not stated) in this assay:
## Output inactive

## Input Hi, do you know how OC(c1ccc(Cl)cc1)(c1ccc(Cl)cc1)C(Cl)(Cl)Cl came out in this test?
## Output active

## Input Outcome? CCOc1nc(C(Cl)(Cl)Cl)ns1
## Output inactive

## Input Can you look up the reported call for CC1=C(C(=O)Nc2ccccc2)SCCO1 for me?
## Output inactive

## Input Entry CCOP(=O)(OCC)Oc1nc(Cl)c(Cl)cc1Cl : call = ?
## Output inactive

## Input For this compound, state the assay outcome: c1ccc2c(c1)oc1ccccc12
## Output inactive

## Input Which outcome was entered for the compound COP(=O)(NC(C)=O)SC (configuration not stated) in this test?
## Output inactive

## Input Field: outcome | Entry: CCOP(=O)(OCC)Oc1ccc2c(C)c(Cl)c(=O)oc2c1
## Output inactive

----------
# assay-comment: Cell Viability - HepG2 (AID 433);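 further: potency means the concentration at half of the fitted maximal effect; cells exposed to compound for 40 hours; potency for ATP loss meaning cytotoxicity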
# assay-setup: qHTS
Records with an inconclusive call do not appear. Calls of active or inactive are those of the source. Calls follow the shape of the full dose curve.
Assignment: determine reported Potency for the given compounds.

Example entries begin here.
{"mol-smiles": "FC(F)(F)c1ccc(Cl)cc1", "Potency": "> 92 µM (inactive)"}
{"mol-smiles": "C#CCO", "Potency": "> 92 µM (inactive)"}

Give Potency for all compounds that follow.
1. COP(=O)(OC)O/C(=C\Cl)c1cc(Cl)c(Cl)cc1Cl
2. Cc1ccc2ccccc2c1C
3. Cc1ccc(O)cc1C

## Output
["> 92 µM (inactive)", "> 92 µM (inactive)", "> 92 µM (inactive)"]

The value of Potency measured for the compound Oc1c(Br)c(Br)c(Br)c(Br)c1Br turned out to be > 92 µM (inactive)

----------
# assay-comment: qHTS assay for cell viability of the p53RE-bla HCT-116 cell line (AID 743292); further: nearly all actives have a fitted effect of over 55% in size
# assay-setup: p53RE-bla HCT-116 viability, ATP luminescence, 16 h; series mostly up to 95 µM
Inconclusive results are not listed. Calls of active or inactive are those of the source. Calls follow the shape of the dose curve; as a rule, active = well fitted cell-killing curve with a large enough effect; inconclusive = small, poorly fitted or top-dose-only effect, or effect the other way; inactive = flat fitted curve, though single readings scatter.
Your answer must be one of the following: yes for active, no for inactive

## Input Status in this test for ClCc1ccccc1Cl ?
## Output no

## Input For this compound, state the assay outcome: Clc1ccc(-c2cc(Cl)c(Cl)cc2Cl)cc1Cl
## Output no

## Input What classification did O=C(O)[C@@H]1[C@H](C(=O)O)[C@@]2(Cl)C(Cl)=C(Cl)[C@]1(Cl)C2(Cl)Cl end up with in this test?
## Output no

FYI, the data here is from PubChem BioAssay (NCATS).
